Measured values drawn from patent US20100135997A1 for this set.

Quick list: Kd per entry.
# TARGET: T1, HLA-A*0201 loaded with the Carcinoembryonic antigen (CEA)-derived … peptide (biotin on the C-terminal biotinylation tag)
# T1 construct: Soluble, biotinylated, immobilised on a streptavidin chip
# EXPERIMENT NOTES: Biacore SPR

Known Kd results, listed for orientation:
binder="SEQ ID NO 77 (receptor, mutated soluble two domain ILT-2) MGHLPKPTLWAEPGSVITQGSPVTLRCQGGQETQEYRLYREKKTAPWITRIPQELVKKGQFPIPSITWEHAGRYRCMQYTLTAGRSESSDPLELVVTGAYIKPTLSAQPSPVVNSGGNVTLQCDSQVAFDGFILCKEGEDEHPQCLNSQPHARGSSRAIFSVGPVSPSRRWWYRCYAYDSNSPYEWSLPSDLLELLVL" reported="≤ 1000 nM"
binder="SEQ ID NO 60 (receptor, mutated soluble two domain ILT-2) MGHLPKPTLWAEPGSVITMDQPVTLRCQGGQETQQYRLYREKKTAPWITRIPQELVKKGQFPIPSITWEHAGRYRCYYGSDTRQWSASSDPLELVVTGVYIKPTLSAQPSPVVNSGGNVTLQCDSQVAFDGFILCKEGEDDHPQCLNSQPHARGSSRAIFSVGPVSPSRRWRYRCYAYDSNSPYEWTRGSDLLELDVDG" reported="≤ 1000 nM"

API: the following record is the query input.
Incoming: Could you please provide reported Kd for SEQ ID NO 133 (receptor, mutated soluble two domain ILT-2) MGHLPKPTLWAEPGSVITMDQPVTLRCQGGQETQEYRLYREKKTAPWITRIPQELVKKGQFPIPSITWEHAGRYRCYYGSDTSQWSASSDPLELVVTGVYIKPTLSAQPSPVVNSGGNVTLQCDSPFLSDGFILCKEGEDEHPQCLNSQPHARGSSRAIFSVGPVSPSRKWWYRCYAYMSWSPYEWSLPSDLLELDVDG ? Thanks!
Outgoing: ≤ 1000 nM
